- EXPERIMENTAL_TARGET: PI3Kδ (Homo sapiens)
- Construct: made in house
- Sequence (O00329 whole entry): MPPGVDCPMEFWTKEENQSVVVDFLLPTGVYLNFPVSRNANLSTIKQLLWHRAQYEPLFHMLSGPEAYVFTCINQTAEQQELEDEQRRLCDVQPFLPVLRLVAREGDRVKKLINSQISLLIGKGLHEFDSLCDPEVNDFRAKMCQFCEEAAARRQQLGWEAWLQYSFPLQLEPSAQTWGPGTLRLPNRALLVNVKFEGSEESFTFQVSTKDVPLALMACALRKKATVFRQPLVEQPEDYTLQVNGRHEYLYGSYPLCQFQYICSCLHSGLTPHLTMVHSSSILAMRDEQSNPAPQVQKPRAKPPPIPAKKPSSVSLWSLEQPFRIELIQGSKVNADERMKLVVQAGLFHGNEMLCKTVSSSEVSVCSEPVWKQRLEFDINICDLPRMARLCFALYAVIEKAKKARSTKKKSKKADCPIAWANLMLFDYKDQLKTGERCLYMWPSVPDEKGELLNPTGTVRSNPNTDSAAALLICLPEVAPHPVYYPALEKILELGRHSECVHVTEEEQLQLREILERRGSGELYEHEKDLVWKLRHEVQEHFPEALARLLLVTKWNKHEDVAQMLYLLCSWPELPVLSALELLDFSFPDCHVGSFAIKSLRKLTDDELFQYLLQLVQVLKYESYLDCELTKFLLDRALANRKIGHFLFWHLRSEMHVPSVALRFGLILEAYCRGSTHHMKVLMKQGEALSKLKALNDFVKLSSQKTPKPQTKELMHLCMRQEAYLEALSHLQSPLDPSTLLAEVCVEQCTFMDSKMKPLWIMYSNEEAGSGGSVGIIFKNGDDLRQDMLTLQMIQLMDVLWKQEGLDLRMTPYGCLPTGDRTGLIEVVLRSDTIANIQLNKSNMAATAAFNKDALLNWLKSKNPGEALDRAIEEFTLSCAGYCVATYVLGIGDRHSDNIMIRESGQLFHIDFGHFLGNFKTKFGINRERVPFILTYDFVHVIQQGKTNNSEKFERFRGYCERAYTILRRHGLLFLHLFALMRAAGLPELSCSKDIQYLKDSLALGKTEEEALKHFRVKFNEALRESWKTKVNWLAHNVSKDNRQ
- Sequence (P27986 whole entry partner): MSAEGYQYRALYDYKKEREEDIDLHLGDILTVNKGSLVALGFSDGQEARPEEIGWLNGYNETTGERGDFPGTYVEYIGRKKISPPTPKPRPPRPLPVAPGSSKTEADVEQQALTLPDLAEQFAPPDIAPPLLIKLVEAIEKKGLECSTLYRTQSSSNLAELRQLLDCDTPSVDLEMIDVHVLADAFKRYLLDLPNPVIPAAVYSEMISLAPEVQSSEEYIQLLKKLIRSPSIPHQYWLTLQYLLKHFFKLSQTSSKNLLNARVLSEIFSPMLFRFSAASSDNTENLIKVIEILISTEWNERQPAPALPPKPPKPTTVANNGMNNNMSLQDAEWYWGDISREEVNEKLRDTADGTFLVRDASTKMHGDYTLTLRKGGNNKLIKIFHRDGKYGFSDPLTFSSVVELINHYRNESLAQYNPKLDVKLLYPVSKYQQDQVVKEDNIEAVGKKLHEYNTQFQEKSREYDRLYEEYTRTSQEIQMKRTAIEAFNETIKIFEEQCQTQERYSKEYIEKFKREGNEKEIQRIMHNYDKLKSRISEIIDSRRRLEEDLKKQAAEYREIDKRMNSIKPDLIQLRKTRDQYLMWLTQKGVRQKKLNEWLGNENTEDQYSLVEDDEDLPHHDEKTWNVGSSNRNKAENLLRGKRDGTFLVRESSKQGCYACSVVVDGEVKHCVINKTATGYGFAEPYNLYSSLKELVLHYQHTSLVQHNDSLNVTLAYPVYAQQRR
- ASSAY_DETAILS: Enzymatic activity of PI3K isoforms, TR-FRET assay (PIP3 formation)
- Assay type: biochemical
- PROTOCOL_CONDITIONS: PI3Kδ; TR-FRET, 2×Km ATP, 10 μM PIP2; read-out: IC50
IC50 values for the molecules below.

// known answers, use as guide
MOLECULE	EXPERIMENTAL_TARGET	IC50
CC(Nc1nc(N)nc(N)c1C#N)c1nc2c(F)cc(F)cc2c(=O)n1-c1cc(F)cc(F)c1 (single isomer, unassigned) [Compound 70a]	PI3Kδ (Homo sapiens)	10 to 50 nM
CC(Nc1nc(N)nc(N)c1C#N)c1nc2ccc(F)cc2c(=O)n1-c1cc(F)cc(F)c1 (single isomer, unassigned) [Compound 11a]	PI3Kδ (Homo sapiens)	1 to 10 nM
COc1cccc(-n2c(C(C)Nc3nc(N)nc(N)c3C#N)nc3cccc(Cl)c3c2=O)c1 (single isomer, unassigned) [Compound 206a]	PI3Kδ (Homo sapiens)	< 1 nM
CC(Nc1nc(N)nc(N)c1C#N)c1nc2ccc(C#N)cc2c(=O)n1-c1ccccc1 (single isomer, unassigned) [Compound 159a]	PI3Kδ (Homo sapiens)	> 50 nM
CC(Nc1nc(N)nc(N)c1C#N)c1nc2cccc(Cl)c2c(=O)n1-c1cc(F)cc(C#N)c1 (single isomer, unassigned) [Compound 20a]	PI3Kδ (Homo sapiens)	1 to 10 nM

Query molecule follows.
Q) Lab note: need IC50 with PI3Kδ (Homo sapiens) for entry CC(Nc1nc(N)nc(N)c1C#N)c1nc2cccc(S(C)(=O)=O)c2c(=O)n1-c1cc(F)cc(F)c1 (single isomer, unassigned) [Compound 96a] , please look it up.
A) 1 to 10 nM
